assay: Hydrodynamic diameter and colloidal stability of aggregates by dynamic light scattering; type: physicochemical; settings: 2.5 μM in PBS from DMSO stock, 37 °C
Overview of reported mean size (hydrodynamic diameter) across a group of compounds:
Quick reminder: number only, in nm, skip the unit.

For orientation, consider the following solved cases.
{"COMPOUND": "CC1=C(/C=C/C(C)=C/C=C/C(C)=C/C=C/C=C(C)/C=C/C=C(C)/C=C/C2=C(C)C[C@@H](OC(=O)CCC(=O)O)CC2(C)C)C(C)(C)CCC1 [Compound 8, β-Cryptoxanthin succinate]", "OBSERVED MEASUREMENT": 34.03}
{"COMPOUND": "CC1=C[C@H](OC(=O)CCC(=O)O)CC(C)(C)[C@H]1/C=C/C(C)=C/C=C/C(C)=C/C=C/C=C(C)/C=C/C=C(C)/C=C/C1=C(C)C[C@@H](OC(=O)CCC(=O)O)CC1(C)C [Compound 10, Lutein bissuccinate]", "OBSERVED MEASUREMENT": 123.1}

Shift focus to the following entry.
Bench note: what mean size (hydrodynamic diameter) did COc1ccc2[nH]cc(CCNC(=O)CNC(=O)CCC(=O)O[C@@H]3CC(C)=C(/C=C/C(C)=C/C=C/C(C)=C/C=C/C=C(C)/C=C/C=C(C)/C=C/C(=O)[C@]4(C)C[C@@H](OC(=O)CCC(=O)NCC(=O)NCCc5c[nH]c6ccc(OC)cc56)CC4(C)C)C(C)(C)C3)c2c1 [Compound 17, Capsanthin-dimelatonin conjugate] show?
226.30

---

experiment: Hydrodynamic diameter and colloidal stability of aggregates by dynamic light scattering; format: physicochemical; details: 5 μM in PBS; sd^2/mean size^2
PROPERTY NAME: PDI
The reply should be a number, written without any unit.

Bench note: what PDI did CC1=C(/C=C/C(C)=C/C=C/C(C)=C/C=C/C=C(C)/C=C/C=C(C)/C=C/C2=C(C)C[C@@H](OC(=O)CCC(=O)O)CC2(C)C)C(C)(C)C[C@H](OC(=O)CCC(=O)O)C1 [Compound 7, Zeaxanthin bissuccinate] show?
0.0270

Bench note: what PDI did COc1ccc2[nH]cc(CCNC(=O)CNC(=O)CCC(=O)O[C@@H]3CC(C)=C(/C=C/C(C)=C/C=C/C(C)=C/C=C/C=C(C)/C=C/C=C(C)/C=C/C4=C(C)C[C@@H](O)CC4(C)C)C(C)(C)C3)c2c1 [Compound 13, Zeaxanthin-monomelatonin conjugate] show?
0.0311

Bench note: what PDI did CC1=C[C@H](OC(=O)CCC(=O)O)CC(C)(C)[C@H]1/C=C/C(C)=C/C=C/C(C)=C/C=C/C=C(C)/C=C/C=C(C)/C=C/C1=C(C)C[C@@H](OC(=O)CCC(=O)O)CC1(C)C [Compound 10, Lutein bissuccinate] show?
0.0249

Bench note: what PDI did CC1=C(/C=C/C(C)=C/C=C/C(C)=C/C=C/C=C(C)/C=C/C=C(C)/C=C/C(=O)[C@]2(C)C[C@@H](OC(=O)CCC(=O)O)CC2(C)C)C(C)(C)C[C@H](OC(=O)CCC(=O)O)C1 [Compound 9, Capsanthin bissuccinate] show?
0.0298

---

Test: Hydrodynamic diameter and colloidal stability of aggregates by dynamic light scattering
Assay type: physicochemical
Settings: 2.5 μM in PBS from DMSO stock, 37 °C
Protocol: In contrary, all spectra gave a hypsochromic shift and loss of fine-structure when the DMSO solutions were diluted with PBS, which refers to the formation of H-type (card-pack) aggregates (Figures S1–S12). […] Size determination of aggregates and the colloidal stability of the sample dispersions were determined by dynamic light scattering measurements, where the hydrodynamic diameter of particles, and zeta potential values were collected. […]
Given measured mean size (hydrodynamic diameter), output True if it is greater than or equal to 100 nm and False if not.

See these solved cases before continuing.
{"COMPOUND": "COc1ccc2[nH]cc(CCNC(=O)CNC(=O)CCC(=O)O[C@@H]3CC(C)=C(/C=C/C(C)=C/C=C/C(C)=C/C=C/C=C(C)/C=C/C=C(C)/C=C/C4C(C)=C[C@@H](OC(=O)CCC(=O)NCC(=O)NCCc5c[nH]c6ccc(OC)cc56)CC4(C)C)C(C)(C)C3)c2c1 (some centres unmarked) [Compound 16, Lutein-bismelatonin conjugate]", "CLASS ASSIGNMENT": "False"}
{"COMPOUND": "COc1ccc2[nH]cc(CCNC(=O)CNC(=O)CCC(=O)O[C@@H]3CC(C)=C(/C=C/C(C)=C/C=C/C(C)=C/C=C/C=C(C)/C=C/C=C(C)/C=C/C4=C(C)C[C@@H](OC(=O)CCC(=O)NCC(=O)NCCc5c[nH]c6ccc(OC)cc56)CC4(C)C)C(C)(C)C3)c2c1 [Compound 14, Zeaxanthin-bismelatonin conjugate]", "CLASS ASSIGNMENT": "True"}
{"COMPOUND": "CC1=C(/C=C/C(C)=C/C=C/C(C)=C/C=C/C=C(C)/C=C/C=C(\\C)COC(=O)CCC(=O)O)C(C)(C)CCC1 [Compound 6, 8′-Apo-β-carotenol succinate]", "CLASS ASSIGNMENT": "False"}
{"COMPOUND": "COc1ccc2[nH]cc(CCNC(=O)CNC(=O)CCC(=O)OC/C(C)=C/C=C/C(C)=C/C=C/C=C(C)/C=C/C=C(C)/C=C/C3=C(C)CCCC3(C)C)c2c1 [Compound 18, 8′-Apo-β-carotenol-melatonin conjugate]", "CLASS ASSIGNMENT": "False"}
{"COMPOUND": "COc1ccc2[nH]cc(CCNC(=O)CNC(=O)CCC(=O)O[C@@H]3CC(C)=C(/C=C/C(C)=C/C=C/C(C)=C/C=C/C=C(C)/C=C/C=C(C)/C=C/C4=C(C)C[C@@H](O)CC4(C)C)C(C)(C)C3)c2c1 [Compound 13, Zeaxanthin-monomelatonin conjugate]", "CLASS ASSIGNMENT": "True"}

Assess whether reported mean size (hydrodynamic diameter) for CC1=C(/C=C/C(C)=C/C=C/C(C)=C/C=C/C=C(C)/C=C/C=C(C)/C=C/C2=C(C)C[C@@H](OC(=O)CCC(=O)O)CC2(C)C)C(C)(C)C[C@H](O)C1 [Compound 11, Zeaxanthin monossuccinate] sits at 100 nm or higher.
False

Assess whether reported mean size (hydrodynamic diameter) for COc1ccc2[nH]cc(CCNC(=O)CNC(=O)CCC(=O)O[C@@H]3CC(C)=C(/C=C/C(C)=C/C=C/C(C)=C/C=C/C=C(C)/C=C/C=C(C)/C=C/C4=C(C)CCCC4(C)C)C(C)(C)C3)c2c1 [Compound 15, Cryptoxanthin-melatonin conjugate] sits at 100 nm or higher.
True

Assess whether reported mean size (hydrodynamic diameter) for CC1=C(/C=C/C(C)=C/C=C/C(C)=C/C=C/C=C(C)/C=C/C=C(C)/C=C/C2=C(C)C[C@@H](OC(=O)CCC(=O)O)CC2(C)C)C(C)(C)C[C@H](OC(=O)CCC(=O)O)C1 [Compound 7, Zeaxanthin bissuccinate] sits at 100 nm or higher.
True
